System: Streptococcus pneumoniae IID553
Test: MIC, agar dilution method, Mueller-Hinton agar with 5% defibrinated horse blood
Type: cell-based
Settings: 35° C., 5% CO2, 24 hours
observable: MIC (µg/mL)
Please reply with the bare figure in µg/mL and do not write the unit itself.

{"columns": ["molecule", "observable", "obs.value"],
 "data": [
  ["CC(=O)NC[C@H]1CN(c2ccc(N3CCOCC3)c(F)c2)C(=O)O1 [Linezolid, reference compound]", "MIC", 2],
  ["CC(=O)NC[C@H]1CN(c2ccc([C@@]3(C#N)[C@@H]4CN(C#N)C[C@@H]43)cc2)C(=O)O1", "MIC", 0.25],
  ["CC(=O)NC[C@H]1CN(c2ccc([C@@]3(C#N)[C@@H]4CCC[C@@H]43)cc2)C(=O)O1", "MIC", 0.5],
  ["CC(=O)NC[C@H]1CN(c2ccc([C@@]3(C#N)[C@@H]4CN(C(=O)CO)C[C@@H]43)cc2)C(=O)O1", "MIC", 0.5]
]}

Now for the molecule whose MIC we want.
The value of MIC measured for the molecule "CC(=O)NC[C@H]1CN(c2ccc([C@@]3(C#N)[C@@H]4CN(S(C)(=O)=O)C[C@@H]43)cc2)C(=O)O1" turned out to be 0.5

FYI, the data here is from patent US20060247286A1.
